All figures here come from patent US9458181B2.

pIC50: −log10 of the molar value.
Entries with reported pIC50 on human cathepsin F (Homo sapiens)
Sequence (Q9UBX1 271-484): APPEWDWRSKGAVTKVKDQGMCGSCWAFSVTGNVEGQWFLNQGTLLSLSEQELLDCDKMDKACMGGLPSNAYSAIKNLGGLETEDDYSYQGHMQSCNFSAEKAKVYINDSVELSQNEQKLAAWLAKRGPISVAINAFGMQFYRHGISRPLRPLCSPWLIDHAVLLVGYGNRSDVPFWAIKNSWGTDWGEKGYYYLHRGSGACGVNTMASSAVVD
assay metric: pIC50

smiles input: N#Cc1cccc(-c2nc(-c3ccc(N4CCS(=O)(=O)CC4)cc3)c([C@@H]3CCCC[C@H]3C(=O)NC3(C#N)CC3)o2)c1
reported: 5.96
//
smiles input: N#Cc1ccccc1-c1nc(-c2ccc(N3CCS(=O)(=O)CC3)cc2)c([C@@H]2CCCC[C@H]2C(=O)NC2(C#N)CC2)o1
reported: 5.72
//
smiles input: N#CC1(NC(=O)[C@@H]2CC(F)(F)CC[C@H]2c2sc(CC(F)(F)F)nc2-c2ccc(N3CCS(=O)(=O)CC3)cc2)CC1
reported: 7.03
//
smiles input: N#Cc1ccc(-c2nc(-c3ccc(N4CCS(=O)(=O)CC4)cc3)c([C@@H]3CCCC[C@H]3C(=O)NC3(C#N)CC3)o2)cc1
reported: 6.19
//
smiles input: N#CC1(NC(=O)[C@@H]2CCCC[C@H]2c2oc(-c3cccc(OC(F)(F)F)c3)nc2-c2ccc(N3CCS(=O)(=O)CC3)cc2)CC1
reported: 5.74
//
smiles input: N#CC1(NC(=O)[C@@H]2CCCC[C@H]2c2oc(-c3ccc(F)cc3F)nc2-c2ccc(N3CCS(=O)(=O)CC3)cc2)CC1
reported: 6.17
//
smiles input: N#CC1(NC(=O)[C@@H]2CCCC[C@H]2c2oc(-c3ccc(F)c(Cl)c3)nc2-c2ccc(N3CCS(=O)(=O)CC3)cc2)CC1
reported: 6.42
//
smiles input: N#CC1(NC(=O)[C@@H]2CC(F)(F)CC[C@H]2c2oc(-c3ccc(F)cc3)nc2-c2ccc(C(=O)N3CCOCC3)cc2)CC1
reported: 6.74

(A) N#CC1(NC(=O)[C@@H]2CCCC[C@H]2c2oc(-c3ccccc3C3CC3)nc2-c2ccc(N3CCS(=O)(=O)CC3)cc2)CC1
(B) Cc1nc(-c2ccc(N3CC(S(C)(=O)=O)C3)cc2)c([C@@H]2CCCC[C@H]2C(=O)NC2(C#N)CC2)s1
(C) N#CC1(NC(=O)[C@@H]2C[C@@H](F)CC[C@H]2c2oc(C(F)(F)F)nc2-c2ccc(N3CCS(=O)(=O)CC3)cc2)CC1
(D) N#CC1(NC(=O)[C@@H]2CCCC[C@H]2c2oc(C3(C(F)(F)F)CC3)nc2-c2ccc(N3CCS(=O)(=O)CC3)cc2)CC1
(E) N#CC1(NC(=O)[C@@H]2CCCC[C@H]2c2oc(-c3ccc(OC(F)F)nc3)nc2-c2ccc(N3CCS(=O)(=O)CC3)cc2)CC1
q: hey, can you rank those compounds up there by pIC50? biggest number first please Please respond with the labels ordered as the question requires.
a: A, C, D, E, B
